Source: patent US10793564B2

- assayed target: recombinant human integrin αVβ6 (Homo sapiens (Human), UniProt P06756+P18564)
- Sequence (P06756 31-992): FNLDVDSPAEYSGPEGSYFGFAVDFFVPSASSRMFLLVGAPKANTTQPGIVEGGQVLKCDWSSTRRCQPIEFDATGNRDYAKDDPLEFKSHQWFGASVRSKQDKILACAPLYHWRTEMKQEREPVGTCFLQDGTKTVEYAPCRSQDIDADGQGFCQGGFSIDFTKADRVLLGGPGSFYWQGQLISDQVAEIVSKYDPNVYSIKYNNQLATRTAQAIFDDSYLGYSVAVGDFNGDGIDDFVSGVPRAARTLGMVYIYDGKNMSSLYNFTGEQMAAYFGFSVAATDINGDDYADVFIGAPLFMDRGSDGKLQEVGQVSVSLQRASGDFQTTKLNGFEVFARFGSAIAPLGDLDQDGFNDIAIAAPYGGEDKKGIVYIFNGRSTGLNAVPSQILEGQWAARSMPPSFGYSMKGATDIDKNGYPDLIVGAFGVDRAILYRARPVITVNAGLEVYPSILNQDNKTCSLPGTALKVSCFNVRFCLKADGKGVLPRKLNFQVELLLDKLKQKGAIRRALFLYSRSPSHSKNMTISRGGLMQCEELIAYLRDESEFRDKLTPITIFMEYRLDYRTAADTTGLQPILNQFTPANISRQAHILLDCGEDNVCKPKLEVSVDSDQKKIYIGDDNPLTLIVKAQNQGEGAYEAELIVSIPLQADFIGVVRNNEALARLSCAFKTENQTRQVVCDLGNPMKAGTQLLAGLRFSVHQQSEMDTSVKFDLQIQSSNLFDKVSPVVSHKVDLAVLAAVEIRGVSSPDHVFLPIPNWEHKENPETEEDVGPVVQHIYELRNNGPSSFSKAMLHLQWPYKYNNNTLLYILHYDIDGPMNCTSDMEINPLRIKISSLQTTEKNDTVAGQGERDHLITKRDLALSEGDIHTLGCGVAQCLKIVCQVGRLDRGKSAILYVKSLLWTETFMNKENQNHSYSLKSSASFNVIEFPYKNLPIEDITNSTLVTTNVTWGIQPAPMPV
- Sequence (P18564 22-707): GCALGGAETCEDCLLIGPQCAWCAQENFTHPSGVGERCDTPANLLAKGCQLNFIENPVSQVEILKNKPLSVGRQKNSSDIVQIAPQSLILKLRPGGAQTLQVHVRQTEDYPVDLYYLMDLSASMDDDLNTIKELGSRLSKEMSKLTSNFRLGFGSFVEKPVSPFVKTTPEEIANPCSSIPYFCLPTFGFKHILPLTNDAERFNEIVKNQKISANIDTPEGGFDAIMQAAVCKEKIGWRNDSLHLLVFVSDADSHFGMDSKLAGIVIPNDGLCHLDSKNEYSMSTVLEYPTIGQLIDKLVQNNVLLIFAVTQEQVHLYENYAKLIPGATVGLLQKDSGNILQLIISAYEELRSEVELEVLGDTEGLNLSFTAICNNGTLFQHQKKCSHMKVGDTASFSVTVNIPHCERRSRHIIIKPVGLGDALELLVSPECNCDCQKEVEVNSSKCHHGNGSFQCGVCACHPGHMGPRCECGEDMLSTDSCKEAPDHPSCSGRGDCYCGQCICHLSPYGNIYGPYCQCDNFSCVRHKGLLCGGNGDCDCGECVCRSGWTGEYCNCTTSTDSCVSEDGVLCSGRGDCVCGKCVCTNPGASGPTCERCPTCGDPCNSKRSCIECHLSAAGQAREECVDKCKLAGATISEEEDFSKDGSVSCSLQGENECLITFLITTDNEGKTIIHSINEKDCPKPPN
- assay protocol: Solid phase integrin αVβ6 binding assay
- conditions: inhibition of recombinant TGFβ1 LAP binding to coated integrin, IC50 presented in four ranges, read-out: αvβ6 Inhibition IC50 (nM) - range
measured metric: IC50

Task: Record request: IC50 value, item COCCN(CCCCc1ccc2c(n1)NCCC2)CC[C@H](Nc1nccc2ccccc12)C(=O)O [Compound 34]
Output: > 1000 nM

====

# key: entry, value: IC50
- assayed target: recombinant human integrin αVβ6 (Homo sapiens (Human), UniProt P06756+P18564)
- assay protocol: Solid phase integrin αVβ6 binding assay
- conditions: inhibition of recombinant TGFβ1 LAP binding to coated integrin, IC50 presented in four ranges, read-out: αvβ6 Inhibition IC50 (nM) - range

Solved cases (6 shown):
- COCCN(CCCCc1ccc2c(n1)NCCC2)CC[C@H](Nc1ncnc2cnccc12)C(=O)O [Compound 17]: < 50 nM
- CO[C@@H](C)CN(CCCCc1ccc2c(n1)NCCC2)CC[C@H](Nc1ncnc2ccccc12)C(=O)O [Compound 25]: < 50 nM
- CC(C)(O)CN(CCCCc1ccc2c(n1)NCCC2)CC[C@H](Nc1ccncn1)C(=O)O [Compound 4]: 50 to 250 nM
- COCCN(CCCCc1ccc2c(n1)NCCC2)CC[C@H](Nc1cc(-n2cccn2)ncn1)C(=O)O [Compound 44]: < 50 nM
- COCCN(CCCCc1ccc2c(n1)NCCC2)CC[C@H](Nc1ncnc2c(F)cccc12)C(=O)O [Compound 20]: < 50 nM
- O=C(O)[C@H](CCN(CCCCc1ccc2c(n1)NCCC2)CCOCC(F)(F)F)Nc1ncnc2ccccc12 [Compound 39]: < 50 nM

Now for another entry.
Task: Record request: IC50 value, item COC[C@@H](F)CN(CCCCc1ccc2c(n1)NCCC2)CC[C@H](Nc1ncc(Br)cn1)C(=O)O [Compound 86]
Output: 50 to 250 nM

====

# key: entry, value: IC50
- assayed target: recombinant human integrin αVβ6 (Homo sapiens (Human), UniProt P06756+P18564)
- assay protocol: Solid phase integrin αVβ6 binding assay
- conditions: inhibition of recombinant TGFβ1 LAP binding to coated integrin, IC50 presented in four ranges, read-out: αvβ6 Inhibition IC50 (nM) - range

- CO[C@H](C)CN(CCCCc1ccc2c(n1)NCCC2)CC[C@H](Nc1ncnc2ccccc12)C(=O)O: < 50 nM
- O=C(O)[C@H](CCN(CCCCc1ccc2c(n1)NCCC2)CCOc1ccccc1)Nc1ncnc2[nH]ncc12: < 50 nM
- CS(=O)(=O)CCN(CCCCc1ccc2c(n1)NCCC2)CC[C@H](Nc1ncc(Br)cn1)C(=O)O: > 1000 nM
- CO[C@H](C)CN(CCCCc1ccc2c(n1)NCCC2)CC[C@H](Nc1ncc(C#N)cn1)C(=O)O: < 50 nM
- O=C(O)[C@H](CCN(CCCCc1ccc2c(n1)NCCC2)CCOc1ccc(F)cc1)Nc1ncc(Br)cn1: 50 to 250 nM

Task: Lookup: IC50 / recombinant human integrin αVβ6 (Homo sapiens (Human), UniProt P06756+P18564) / CN(C)C(=O)CN(CCCCc1ccc2c(n1)NCCC2)CC[C@H](Nc1ncnc2c1cnn2C)C(=O)O
Output: < 50 nM

Task: Lookup: IC50 / recombinant human integrin αVβ6 (Homo sapiens (Human), UniProt P06756+P18564) / Cn1ncc2c(N[C@@H](CCN(CCCF)CCCCc3ccc4c(n3)NCCC4)C(=O)O)ncnc21
Output: < 50 nM

Task: Lookup: IC50 / recombinant human integrin αVβ6 (Homo sapiens (Human), UniProt P06756+P18564) / COCCN(CCCCc1ccc2c(n1)NCCC2)CC[C@H](Nc1cc(C)nc(C(F)(F)F)n1)C(=O)O
Output: < 50 nM

Task: Lookup: IC50 / recombinant human integrin αVβ6 (Homo sapiens (Human), UniProt P06756+P18564) / COC[C@@H](F)CN(CCCCc1ccc2c(n1)NCCC2)CC[C@H](Nc1ncncc1-c1ccccc1)C(=O)O
Output: < 50 nM

Task: Lookup: IC50 / recombinant human integrin αVβ6 (Homo sapiens (Human), UniProt P06756+P18564) / O=C(O)[C@H](CCN(CCCCc1ccc2c(n1)NCCC2)CCC(F)F)Nc1ncnc2ccccc12
Output: < 50 nM
